study target: ferroportin fused to green fluorescent protein (ECR293/Fpn-GFP cells) (Mus musculus, UniProt Q9JHI9)
Sequence (Q9JHI9 whole entry, the tested form may be a part): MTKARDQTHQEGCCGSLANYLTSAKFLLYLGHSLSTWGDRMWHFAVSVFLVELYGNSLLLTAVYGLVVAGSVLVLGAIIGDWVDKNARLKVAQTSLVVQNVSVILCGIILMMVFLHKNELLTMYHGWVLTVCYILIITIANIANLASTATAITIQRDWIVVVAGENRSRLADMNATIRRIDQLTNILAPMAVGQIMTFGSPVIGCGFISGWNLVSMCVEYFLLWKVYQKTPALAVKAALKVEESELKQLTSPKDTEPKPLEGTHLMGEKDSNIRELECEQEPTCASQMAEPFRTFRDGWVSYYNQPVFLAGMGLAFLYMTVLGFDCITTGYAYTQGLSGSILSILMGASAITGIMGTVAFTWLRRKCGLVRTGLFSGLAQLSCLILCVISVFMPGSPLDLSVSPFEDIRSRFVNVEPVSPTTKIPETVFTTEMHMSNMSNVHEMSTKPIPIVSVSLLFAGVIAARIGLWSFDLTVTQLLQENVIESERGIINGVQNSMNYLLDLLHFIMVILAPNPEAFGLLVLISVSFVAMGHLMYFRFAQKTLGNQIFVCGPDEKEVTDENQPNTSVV
test details: Flow cytometry of ferroportin-GFP internalization and degradation in ECR293/Fpn-GFP cells
Format: cell-based
assay setup: concentration eliciting 50% of maximal loss of fluorescence generated by reference Hep25; 24 hours; read-out: EC50 (the source's name)
Ends that are not written are not given here.
Entries and their DC50 values follow.
Dear colleague, please return just the value in nM, with no unit written.

Below, 3 substances whose answers are already recorded.
DTHFPIAIFC-NH2 [Hep10]    100
HFPICI-NH2 [Hep6]    1000
DTHFPICI-NH2 [Hep8]    2000

Turning now to a further record.
Need DC50, item HFPICIF-NH2 [Hep7ΔDT] 700
